System: muMax20 (Max(13-93) K31hArg/K57hArg, M65Nle)
Experiment: PBM 8-mer E-score (E-score (rank enrichment, -0.5 to 0.5)); higher = stronger preferential binding
Over roughly 33,000 sequences, “E-score (rank enrichment, -0.5 to 0.5)” has its median near -0.0068; the highest 2% begin near 0.24. The full list was thinned out, with the highest values kept by preference.
The sequences listed here are annotated with their PBM 8-mer E-score.

| Query Sequence | PBM 8-mer E-score |
| --- | --- |
| AATTTTCG | 0.0133 |
| AGTATTCG | 0.0983 |
| CATCGAGC | -0.0831 |
| AATATATA | 0.235 |
| CATATTTC | 0.133 |
| AATATATT | 0.244 |
| TGGAGACA | -0.0387 |
| CATATTTA | 0.288 |
| TAGATCTA | 0.0708 |
| TTGTAAAA | 0.24 |
| ATTATAAT | 0.201 |
| ATGTAACG | 0.122 |
| ATGGTAAG | 0.0283 |
| AATATAGT | 0.219 |
| AAGTCACA | 0.029 |
| AAGTAACA | 0.152 |
| ACTGGATC | -0.0849 |
| AATATTCA | 0.259 |
| TACATCAA | 0.11 |
| ATGTAATA | 0.259 |
| ATAGTTAG | 0.0831 |
| AGATTGCT | -0.0246 |
| CATCCATC | 0.0727 |
| CCCCCGAC | -0.232 |
| ACTCCTCT | -0.0496 |
| CGAGTTTC | 0.112 |
| CAGTTGTC | -0.0724 |
| GATAGCAC | 0.0754 |
| AATCAGCT | 0.298 |
| ATGTAAAA | 0.221 |
| CATTTTAC | 0.188 |

====

Tested on: muMax20 (Max(13-93) K31hArg/K57hArg, M65Nle)
Experiment: PBM 8-mer E-score (E-score (rank enrichment, -0.5 to 0.5)); higher = stronger preferential binding
In all, about 33,000 sequences were measured (“E-score (rank enrichment, -0.5 to 0.5)”: median about -0.0068, highest 2% from about 0.24 on). The sample holds the highest values, similar sequences and a random draw of the others, so the mix is not that of the screen.
The sequences listed here are annotated with their PBM 8-mer E-score.
Recorded Endpoint: PBM 8-mer E-score

| Query Sequence | Measured Value |
| --- | --- |
| ATCCTCAA | -0.0775 |
| AAATACAA | 0.19 |
| AAATACAC | 0.273 |
| CATATGAA | 0.0777 |
| AAATACAG | 0.209 |
| TCGGCCAA | -0.181 |
| ATATAAAC | 0.324 |
| GAATACAC | 0.123 |
| CTGGGAGC | -0.247 |
| AGTATAGC | -0.0321 |
| CAGCCTGA | -0.0558 |
| ATATAAGA | 0.262 |
| ATATAAAT | 0.308 |
| AGCTGTAC | -0.0262 |
| GATACGCC | -0.108 |
| ATAGCGTA | -0.019 |
